System: MILI (PIWIL2) piRISC loaded with piRNA #1 (26 nt);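 also: 1 nM active piRISC with 0.1 nM target library at 33 °C single turnover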
Test Name: pre-steady-state target cleavage rate (min^-1); guide: piRNA #1 5'p-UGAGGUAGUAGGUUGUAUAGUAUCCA; MIWI and MILI are mouse PIWI proteins and EfPiwi is from a freshwater sponge; tags in brackets are library labels; higher = faster piRNA-guided slicing of the target
Test Context: auxiliary factor: 500 nM mouse GTSF1
What pre-steady-state target cleavage rate was measured for each of the following?
Answers are plain numbers.

Record Sequence: GGAGUGGAUACUAUACAACCAACUACCACA
Assay Metric: pre-steady-state target cleavage rate
Endpoint Result: 0.00424
//
Record Sequence: GGAGACCAUACUAUACAACCUACUACCCUCA
Assay Metric: pre-steady-state target cleavage rate
Endpoint Result: 0.22
//
Record Sequence: GGAGACGAUACUAUACAACCUACUACCCCA
Assay Metric: pre-steady-state target cleavage rate
Endpoint Result: 0.144
//
Record Sequence: GGAGUGGAUACUAUACAACGAACUACCUCA
Assay Metric: pre-steady-state target cleavage rate
Endpoint Result: 0.00366
//
Record Sequence: GGAGAGGAUACUAUACAAGGUACUACCUCA
Assay Metric: pre-steady-state target cleavage rate
Endpoint Result: 0.0284
//
Record Sequence: GGAGACCUAUCUAUACAUCCUAGUACCUCA
Assay Metric: pre-steady-state target cleavage rate
Endpoint Result: 0.0489
//
Record Sequence: GGAGUGGAUACUUUACAACCAACUACCUCA
Assay Metric: pre-steady-state target cleavage rate
Endpoint Result: 0.00276
//
Record Sequence: GGAGACCUAUCAAUACAACCUACAACCUCA
Assay Metric: pre-steady-state target cleavage rate
Endpoint Result: 0.0677

# batch size: 5; output pre-steady-state target cleavage rate per entry
1. GGAGACCAUACUAUACAACCUACUACUCUCA
2. GGAGAGGAUACUAUACAAACUACUACCUCA
3. GGAGACCUAUGUAGACAACCUACUACCUCA
4. GGAGACCUUACUAUACAUCCUACUAGCUCA
5. GGAGACCUAUGAUAUCAACCUAUCUACCUCA

## Result
[0.331, 0.134, 0.0173, 0.2, 0.00534]
